# Tested on: RXF 393
# test.description: NCI tumour cell line growth inhibition, 48 h
Activity calls are given as the source filed them. Cut-off read from the data, not from the text of the source: active = GI50 up to about 1.1 µM and inactive = higher.
recorded.metric: GI50

input: Return reported GI50; argument: O=C(NN1C(=O)C(Cl)C1c1cccc(O)c1)c1ccccc1O (stereo unspecified)
output: > 100 µM (inactive)

input: Return reported GI50; argument: CC(C)(C)OC(=O)NCC(CNC(=O)OC(C)(C)C)c1nc(C(N)=O)cs1
output: > 100 µM (inactive)

input: Return reported GI50; argument: O=C(O)C1C(=O)Oc2c(cccc2[N+](=O)[O-])C1O (stereo unspecified)
output: > 100 µM (inactive)

input: Return reported GI50; argument: COc1cc2c(cc1O)C(=O)O[C@@H]1CC=C3CCN(C)[C@H]3[C@H]21
output: > 25 µM (inactive)

input: Return reported GI50; argument: C#C[C@]1(O)CC[C@H]2[C@@H]3CCC4=C/C(=N/OC(=O)c5cccc6cc7ccccc7nc56)CC[C@@H]4[C@H]3CC[C@@]21CC
output: > 100 µM (inactive)

input: Return reported GI50; argument: O=C(OC1C=C=CS(=O)(=O)CC#C/C=C\1)c1cnc2ccccc2n1 (stereo unspecified)
output: > 100 µM (inactive)

input: Return reported GI50; argument: COc1ccc(OC(C)=O)c2c1CCC=CC2=O
output: 9.16 µM (inactive)

input: Return reported GI50; argument: O=[N+]([O-])C(/C=C(\Cl)n1nnc2ccccc21)=C(/Cl)n1nnc2ccccc21
output: > 100 µM (inactive)

input: Return reported GI50; argument: N=C(N)NNC(=O)CCCCCCCC(=O)NNC(=N)N
output: > 100 µM (inactive)

input: Return reported GI50; argument: N#Cc1c(=O)c2cc([N+](=O)[O-])ccc2n2c1[nH]c1ccccc12
output: 3.55 µM (inactive)

input: Return reported GI50; argument: COc1cc(/C=C2\CCC(C)C3C2=NN(C(C)=O)C3c2cc(OC)c(OC)c(OC)c2)cc(OC)c1OC (stereo unspecified)
output: 43.5 µM (inactive)

input: Return reported GI50; argument: Nc1nc(-c2cccs2)cs1
output: > 100 µM (inactive)

input: Return reported GI50; argument: CCNc1ncnc2nn[nH]c12
output: > 100 µM (inactive)

input: Return reported GI50; argument: Cc1ccc(S(=O)(=O)OCCC2CN(C(=O)OCc3ccccc3)C(C)(C)O2)cc1 (stereo unspecified)
output: 6.4 µM (inactive)

input: Return reported GI50; argument: C=CCn1c(S)nnc1C12CC3CC(CC(C3)C1)C2
output: > 100 µM (inactive)

input: Return reported GI50; argument: CCOC1c2nc3ccccc3nc2-c2ccccc2N1C(C)=O (stereo unspecified)
output: 28.3 µM (inactive)

input: Return reported GI50; argument: C[C@H]1C=C2[C@@H]3CC(C)(C(=O)O)CC[C@]3(C)CC[C@]2(C)[C@]2(C)CC[C@H]3C(C)(C)[C@@H](OC(=O)c4cccc5c(=O)c6ccccc6[nH]c45)CC[C@]3(C)[C@@H]12 (stereo partly specified)
output: > 100 µM (inactive)

input: Return reported GI50; argument: Cn1c(=O)c2c(nc(Nc3ccc(Cl)cc3)n3c(=O)n(-c4ccccc4)c(=O)n23)n(C)c1=O
output: > 100 µM (inactive)

input: Return reported GI50; argument: COC(=O)c1c(O)ccc2c1c1cc3ccccc3cc1n2Cc1cc(OC)cc(OC)c1
output: 3.96 µM (inactive)

input: Return reported GI50; argument: O=c1[nH]c2ccc(Cl)cc2o1
output: > 100 µM (inactive)

input: Return reported GI50; argument: CCc1nc(N)nc(N)c1-c1ccc([N+](=O)[O-])c(Cl)c1
output: 16.1 µM (inactive)

input: Return reported GI50; argument: COc1cc(Cn2c3c(c4cc(O)ccc42)Cc2ccccc2C3=O)cc(OC)c1
output: > 100 µM (inactive)

input: Return reported GI50; argument: [O-][S+]1Nc2c(Cl)cc(Cl)c3c(Cl)cc(Cl)c(c23)N1
output: 21.9 µM (inactive)

input: Return reported GI50; argument: O=C1CCC(=O)N1CNc1ccc2c(c1)Sc1ccccc1O2
output: 22.5 µM (inactive)

input: Return reported GI50; argument: COC(=O)Cc1nn2c(nc1=O)sc1ccc3ccccc3c12
output: 50.7 µM (inactive)

input: Return reported GI50; argument: COc1ccc(/C=C/C(=O)Oc2cc(O)cc(O)c2)cc1
output: 72.4 µM (inactive)

input: Return reported GI50; argument: Nc1c(-c2ccccc2)c2ccc([N+](=O)[O-])cc2c(=O)n1-c1cccc(C(=O)O)c1
output: > 100 µM (inactive)

input: Return reported GI50; argument: CCC(=O)NI1OC(=O)c2ccccc21
output: > 100 µM (inactive)

input: Return reported GI50; argument: COc1ccc2c(C(=O)c3c(C)n(CCN4CCOCC4)c4ccccc34)cccc2c1
output: 22.1 µM (inactive)

input: Return reported GI50; argument: Cc1cc2c(cc1Br)C1(C)CCC(C)C1(C)O2 (stereo unspecified)
output: 15.7 µM (inactive)

input: Return reported GI50; argument: CCCc1c2c([nH]c(=O)c1C)C(=O)c1[nH]c(=O)c(C)c(CCC)c1C2=O
output: 19.4 µM (inactive)
